Target: EGFR (human) (UniProt P00533)
Sequence (P00533 whole entry, looked up): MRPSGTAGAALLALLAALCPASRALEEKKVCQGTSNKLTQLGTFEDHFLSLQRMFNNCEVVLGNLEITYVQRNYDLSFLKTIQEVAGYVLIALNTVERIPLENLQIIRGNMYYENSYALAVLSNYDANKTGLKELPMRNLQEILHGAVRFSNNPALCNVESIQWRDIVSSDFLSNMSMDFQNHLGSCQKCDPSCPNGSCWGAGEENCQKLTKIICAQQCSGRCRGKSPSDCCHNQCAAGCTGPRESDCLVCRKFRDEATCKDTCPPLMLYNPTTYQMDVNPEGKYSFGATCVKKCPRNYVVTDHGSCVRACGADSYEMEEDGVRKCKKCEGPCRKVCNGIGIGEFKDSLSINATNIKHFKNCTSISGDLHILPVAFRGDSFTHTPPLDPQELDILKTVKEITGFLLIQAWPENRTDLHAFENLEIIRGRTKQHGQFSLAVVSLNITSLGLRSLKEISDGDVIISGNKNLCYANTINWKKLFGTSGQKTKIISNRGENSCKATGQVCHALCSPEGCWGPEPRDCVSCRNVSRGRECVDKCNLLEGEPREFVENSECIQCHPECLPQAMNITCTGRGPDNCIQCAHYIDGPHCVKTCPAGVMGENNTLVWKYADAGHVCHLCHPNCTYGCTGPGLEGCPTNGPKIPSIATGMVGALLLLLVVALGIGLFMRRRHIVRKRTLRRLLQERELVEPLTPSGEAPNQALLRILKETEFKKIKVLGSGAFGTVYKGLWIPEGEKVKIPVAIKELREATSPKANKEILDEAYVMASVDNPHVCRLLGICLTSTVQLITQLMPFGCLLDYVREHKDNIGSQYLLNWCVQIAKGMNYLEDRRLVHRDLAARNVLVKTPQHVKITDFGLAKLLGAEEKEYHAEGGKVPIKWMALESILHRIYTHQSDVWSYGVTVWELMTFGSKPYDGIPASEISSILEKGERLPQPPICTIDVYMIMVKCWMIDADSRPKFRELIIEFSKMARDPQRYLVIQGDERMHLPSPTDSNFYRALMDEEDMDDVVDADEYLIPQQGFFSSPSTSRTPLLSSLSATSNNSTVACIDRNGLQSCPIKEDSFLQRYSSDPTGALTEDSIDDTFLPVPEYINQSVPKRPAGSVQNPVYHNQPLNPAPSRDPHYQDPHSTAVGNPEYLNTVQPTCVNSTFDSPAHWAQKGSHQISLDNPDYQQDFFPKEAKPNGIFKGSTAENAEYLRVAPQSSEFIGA
pIC50: −log10 of the molar value.
Here, each record is paired with measured pIC50 data.
measured attribute: pIC50

>>> observed("C=CC(=O)Nc1ccc(OC)c(Nc2ncc(Cl)c(Nc3ccc(OCC4CCOCC4)cc3P(C)(C)=O)n2)c1")
"7.00 to 7.30"
>>> observed("C=CC(=O)Nc1cc(Nc2ncc(Cl)c(Nc3ccccc3P(C)(C)=O)n2)c(OC)cc1N1CCC(N2CCC2)C1 (configuration not stated)")
"> 7.30"
>>> observed("C=C(CN1CCOCC1)C(=O)Nc1ccc(OC)c(Nc2ncc(Cl)c(Nc3ccccc3P(C)(C)=O)n2)c1")
"> 7.30"
>>> observed("C=CC(=O)Nc1cc(Nc2ncc(Cl)c(Nc3ccccc3P(C)(C)=O)n2)c(OC)cc1N1CCC(N2CCCN(C)CC2)CC1")
"> 7.30"
>>> observed("C=CC(=O)Nc1cc(Nc2ncc(Cl)c(Nc3ccccc3P(C)(C)=O)n2)c(OC)cc1C#CC(C)(C)N1CCCC1")
"7.00 to 7.30"
>>> observed("C=CC(=O)Nc1cc(Nc2ncc(C3CC3)c(Nc3ccccc3P(C)(C)=O)n2)c(OC)cc1N(C)CCN(CC)CC")
"> 7.30"
>>> observed("C=C(CN1CCCCC1)C(=O)Nc1ccc(OC)c(Nc2ncc(Cl)c(Nc3ccccc3P(C)(C)=O)n2)c1")
"> 7.30"
>>> observed("C=CC(=O)Nc1ccc(OC)c(Nc2ncc(Cl)c(Nc3ccc(OCCN(C)C)cc3P(C)(C)=O)n2)c1")
"> 7.30"
>>> observed("C=CC(=O)Nc1cc(Nc2ncc(Cl)c(Nc3ccccc3P(C)(C)=O)n2)c(OC)cc1N1CCN(C2CCN(C)CC2)CC1")
"> 7.30"
>>> observed("C=C(CN1CCCC1)C(=O)Nc1ccc(OC)c(Nc2ncc(Cl)c(Nc3ccccc3P(C)(C)=O)n2)c1")
"> 7.30"
>>> observed("C=CC(=O)Nc1cc(Nc2ncc(Cl)c(Nc3ccccc3P(C)(C)=O)n2)c(OC)cc1OC1CCN(C)C1 (configuration not stated)")
"> 7.30"
>>> observed("COc1cc(F)c(NC(=O)C#CCN2CCCC2)cc1Nc1ncc(Cl)c(Nc2ccccc2P(C)(C)=O)n1")
"> 7.30"
>>> observed("C=CC(=O)Nc1cc(Nc2ncc(Cl)c(Nc3ccccc3P(C)(C)=O)n2)c(OC)cc1CCN1CCN(C)CC1")
"> 7.30"
>>> observed("C=CC(=O)Nc1ccc(Nc2ncc(Cl)c(Nc3cccc(OCCN4CCCCC4)c3P(C)(C)=O)n2)c(OC)c1")
"6.60 to 7.00"
>>> observed("C=CC(=O)Nc1cc(Nc2ncc(Cl)c(Nc3ccccc3P(C)(C)=O)n2)c(OC)cc1OC(COCC)CN(C)C (configuration not stated)")
"> 7.30"
>>> observed("COc1cc(N2CCOCC2)c(NC(=O)C#CCCN(C)C)cc1Nc1ncc(Cl)c(Nc2ccccc2P(C)(C)=O)n1")
"> 7.30"
>>> observed("C=CC(=O)Nc1cc(Nc2ncc(Cl)c(Nc3ccccc3P(C)(C)=O)n2)c(OC)cc1N1CCC(N2CCN(C)CC2)CC1")
"> 7.30"
>>> observed("CC#CC(=O)Nc1cc(Nc2ncc(Cl)c(Nc3ccccc3P(C)(C)=O)n2)c(OC)cc1N1CCC(N2CCN(C)CC2)CC1")
"7.00 to 7.30"
>>> observed("C=CC(=O)Nc1cc(Cc2ncc(Cl)c(Nc3ccccc3P(C)(C)=O)n2)c(OC)cc1C#CCN1CCC(C)CC1")
"> 7.30"
>>> observed("C=CC(=O)Nc1cc(Nc2ncc(Cl)c(Nc3ccccc3S(=O)(=O)C(C)C)n2)c(OC)cc1C#CCN(C)C")
"> 7.30"
>>> observed("C=CC(=O)Nc1cc(Nc2ncc(Cl)c(Nc3ccccc3P(C)(C)=O)n2)c(OC)cc1C#CCN1CCN(C)CC1")
"> 7.30"
>>> observed("C=CC(=O)Nc1cc(Nc2ncc(Cl)c(Nc3ccccc3P(C)(C)=O)n2)c(OC)cc1OCCN1CCOCC1")
"> 7.30"
>>> observed("C=CC(=O)Nc1cc(Nc2ncc(Cl)c(Nc3ccccc3P(C)(C)=O)n2)c(OC)cc1N1CCC(N(C)C)CC1")
"> 7.30"
>>> observed("C=CC(=O)Nc1ccc(OC)c(Nc2ncc(C#N)c(Nc3ccccc3P(C)(C)=O)n2)c1")
"> 7.30"
>>> observed("C=CC(=O)Nc1cc(Nc2ncc(Cl)c(Nc3ccccc3P(C)(C)=O)n2)c(OC)cc1C(=O)N1CCN(C)CC1")
"6.60 to 7.00"
>>> observed("COc1ccc(NC(=O)/C=C/CN2CCCCC2)cc1Nc1ncc(Cl)c(Nc2ccccc2P(C)(C)=O)n1")
"> 7.30"
>>> observed("COc1ccc(NC(=O)/C=C/C(=O)N2CCN(C)CC2)cc1Nc1ncc(Cl)c(Nc2ccccc2P(C)(C)=O)n1")
"> 7.30"
>>> observed("C=CC(=O)Nc1cc(Nc2ncc(Cl)c(Nc3ccccc3P(C)(C)=O)n2)c(OC)cc1OCc1ccncc1")
"> 7.30"
>>> observed("C=C(CN1CCN(C(C)C)CC1)C(=O)Nc1ccc(OC)c(Nc2ncc(Cl)c(Nc3ccccc3P(C)(C)=O)n2)c1")
"7.00 to 7.30"
>>> observed("C=C(CN1CCC(N2CCN(C)CC2)CC1)C(=O)Nc1ccc(OC)c(Nc2ncc(Cl)c(Nc3ccccc3P(C)(C)=O)n2)c1")
"> 7.30"
>>> observed("C=CC(=O)Nc1cc(Nc2ncc(Cl)c(Nc3ccc(OCCN4CCCC4)cc3P(C)(C)=O)n2)c(OC)cc1F")
"> 7.30"
>>> observed("C=CC(=O)Nc1cc(Cc2ncc(Cl)c(Nc3ccccc3P(C)(C)=O)n2)c(OC)cc1C#CCN1CCC(N(C)C)C1 (configuration not stated)")
"7.00 to 7.30"
